- tested.on: synthetic peptide of tat (HIV tat) (Human immunodeficiency virus type 1 group M subtype B, UniProt P04610, P77S)
- Sequence (P04610 49-82 P77S): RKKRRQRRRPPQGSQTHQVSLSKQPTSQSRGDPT
- measurement.protocol: Gel shift assay, inhibition of siRNA binding to synthetic peptide of tat
- measurement.conditions: compound 100 ppm; synthetic peptide of tat 500 nM
endpoint.label: Binding inhibition rate (%) Gel shift tat 100 ppm

{"columns": ["compound", "reported.value"],
 "data": [
  ["O=C1CCc2ccccc2C1=O [Compound 6]", 100],
  ["O=C1C=C(O)C(=O)C=C1O [Compound 15]", 80],
  ["O=C1C=CC(=O)c2c(O)ccc(O)c21 [Compound 20]", 100],
  ["O=C1CCSC1 [Compound 9]", 0],
  ["COC1=C(OC)C(=O)C(C)=CC1=O [Compound 16]", 0],
  ["Cc1occc(=O)c1O [Compound 19]", 0],
  ["O=C1C=CC(=O)C1 [Compound 5]", 100],
  ["COc1c(OC)c(=O)c1=O [Compound 1]", 10],
  ["O=C1C=CC(=O)C=C1 [Compound 12]", 100],
  ["NC1=CC(=O)CCC1 [Compound 18]", 0],
  ["O=C1C=C(Cl)C(=O)C=C1Cl [Compound 14]", 100],
  ["O=C1C=C(Cl)C(=O)C(Cl)=C1 [Compound 13]", 100]
]}

Provenance of the data: patent US20100216981A1
